test system: human PPARγ2 (Homo sapiens)
Construct: the amino acids 182 to 505 of human PPARγ2; expressed in transfected cells; host or cells: COS7 cells (African green monkey kidney)
Sequence (P37231 182-505): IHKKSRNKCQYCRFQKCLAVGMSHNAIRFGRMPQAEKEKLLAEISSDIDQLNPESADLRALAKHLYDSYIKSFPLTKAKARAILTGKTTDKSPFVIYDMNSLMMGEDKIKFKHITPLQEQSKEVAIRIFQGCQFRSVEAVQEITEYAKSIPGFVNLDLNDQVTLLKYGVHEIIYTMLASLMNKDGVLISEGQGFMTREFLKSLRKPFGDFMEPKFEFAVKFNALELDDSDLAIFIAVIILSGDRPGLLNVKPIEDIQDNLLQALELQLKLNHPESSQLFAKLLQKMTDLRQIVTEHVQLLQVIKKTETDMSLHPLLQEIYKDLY
test protocol: PPARγ activation activity, Gal4-PPARγ2 LBD luciferase transfection assay using COS7 cells
Assay type: cell-based
experimental setup: COS-7, 16 h; maximum activity strength relative to the maximum activity of rosiglitazone; read-out: % MAX vs Rosiglitazone
Protocol: The agonistic activity of the compounds of the invention on PPARγ was measured based on the transfection assay using COS7 cells (DS Pharma Biomedical Co., Ltd., Osaka, Japan), which are the cell line derived from the kidney of the African green monkey. COS7 cells were cultured under 5% CO2 concentration, and DMEM medium containing 10% fetal bovine serum, glutamic acid, and antibiotics was used as a medium. […]

compound	test system	Emax / %
CCCCc1nc(C)n(-c2ccccn2)c(=O)c1Cc1cc(CCC)c(OC(C(=O)O)c2cccc(Cl)c2)c(CCC)c1 (stereo not shown) [Example 8]	human PPARγ2 (Homo sapiens)	41.4
CCCCc1nc(C)n(-c2ccccn2)c(=O)c1Cc1cc(CCC)c(OC(C(=O)O)c2ccc(Cl)cc2)c(CCC)c1 (stereo not shown) [Example 9]	human PPARγ2 (Homo sapiens)	47
CCCCc1nc(C)n(-c2ccccn2)c(=O)c1Cc1cc(CCC)c(OC(c2ccccc2)c2noc(=O)[nH]2)c(CCC)c1 (stereo not shown) [Example 5]	human PPARγ2 (Homo sapiens)	35.1
CCCCc1nc(C)n(-c2ncc(OCC)cn2)c(=O)c1Cc1cc(CCC)c(OC(C(=O)O)c2ccccc2)c(CCC)c1 (stereo not shown) [Example 20]	human PPARγ2 (Homo sapiens)	58.6
CCCCc1nc(C)n(-c2ncc(OC)cn2)c(=O)c1Cc1cc(CCC)c(OC(C(=O)O)c2ccccc2)c(CCC)c1 (stereo not shown) [Example 15]	human PPARγ2 (Homo sapiens)	47.2
CCCCc1nc(C)n(-c2ncc(OCCSC)cn2)c(=O)c1Cc1cc(CCC)c(OC(C(=O)O)c2ccccc2)c(CCC)c1 (stereo not shown) [Example 24]	human PPARγ2 (Homo sapiens)	39.8
